Assay read-out IC50; system under study: Acetylcholinesterase (Homo sapiens, UniProt P22303).
Sequence (P22303 whole entry): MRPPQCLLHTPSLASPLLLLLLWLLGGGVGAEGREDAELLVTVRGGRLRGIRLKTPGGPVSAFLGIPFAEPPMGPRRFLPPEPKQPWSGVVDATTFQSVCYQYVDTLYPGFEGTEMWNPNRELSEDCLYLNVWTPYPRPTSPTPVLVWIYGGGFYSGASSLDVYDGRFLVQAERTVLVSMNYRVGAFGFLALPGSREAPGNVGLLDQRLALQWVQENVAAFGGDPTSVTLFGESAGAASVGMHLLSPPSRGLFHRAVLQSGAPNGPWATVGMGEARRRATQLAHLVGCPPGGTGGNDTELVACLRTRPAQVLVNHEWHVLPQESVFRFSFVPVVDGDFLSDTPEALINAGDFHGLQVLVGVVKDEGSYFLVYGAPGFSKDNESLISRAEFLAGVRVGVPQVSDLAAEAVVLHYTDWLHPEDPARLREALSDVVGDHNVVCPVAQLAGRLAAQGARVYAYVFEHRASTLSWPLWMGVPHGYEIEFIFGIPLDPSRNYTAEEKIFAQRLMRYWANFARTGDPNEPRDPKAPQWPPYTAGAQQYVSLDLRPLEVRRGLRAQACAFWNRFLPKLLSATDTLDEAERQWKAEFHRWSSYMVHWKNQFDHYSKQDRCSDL

chem.smiles | IC50, µM
Nc1c2c(nc3ccc(Cl)cc13)CCCCC2 | 8.6
COc1ccc2nc3c(c(N)c2c1)CCCCC3 | 17.6
Cc1cccc2nc3c(c(N)c12)CCCCC3 | 0.255
Nc1c2c(nc3ccc(F)cc13)CCC2 | 0.662
Nc1c2c(nc3ccc(Br)cc13)CCCCC2 | 13.8
Nc1c2c(nc3c(Cl)cc(Cl)cc13)CCC2 | 13.1
Nc1c2c(nc3c(Cl)cc(Cl)cc13)CCCC2 | 4.34

###

- protocol.summary: Drug uptake in ICR mouse plasma at 5 mg/kg, ip measured after 60 mins by HPLC-MS analysis
- Assay type: ADME, organism-based
Quick rule: concentration at 1 h of at least 200 nM means fulfilled, below that means not fulfilled.

chem.smiles | discrete.label
Cc1ccc2c(N)c3c(nc2c1)CCCC3.Cl | not fulfilled
Cl.Nc1c2c(nc3ccc(Br)cc13)CCC2 | not fulfilled
Cl.Nc1c2c(nc3cccc(Cl)c13)CCCCC2 | not fulfilled
Cl.Nc1c2c(nc3ccc(Br)cc13)CCCC2 | not fulfilled
COc1ccc2nc3c(c(N)c2c1)CCCC3.Cl | fulfilled
Cl.Nc1c2c(nc3ccc(Cl)cc13)CCC2 | fulfilled

###

List of IC50 tested on Cholinesterase (Homo sapiens, UniProt P06276).
Sequence (P06276 whole entry): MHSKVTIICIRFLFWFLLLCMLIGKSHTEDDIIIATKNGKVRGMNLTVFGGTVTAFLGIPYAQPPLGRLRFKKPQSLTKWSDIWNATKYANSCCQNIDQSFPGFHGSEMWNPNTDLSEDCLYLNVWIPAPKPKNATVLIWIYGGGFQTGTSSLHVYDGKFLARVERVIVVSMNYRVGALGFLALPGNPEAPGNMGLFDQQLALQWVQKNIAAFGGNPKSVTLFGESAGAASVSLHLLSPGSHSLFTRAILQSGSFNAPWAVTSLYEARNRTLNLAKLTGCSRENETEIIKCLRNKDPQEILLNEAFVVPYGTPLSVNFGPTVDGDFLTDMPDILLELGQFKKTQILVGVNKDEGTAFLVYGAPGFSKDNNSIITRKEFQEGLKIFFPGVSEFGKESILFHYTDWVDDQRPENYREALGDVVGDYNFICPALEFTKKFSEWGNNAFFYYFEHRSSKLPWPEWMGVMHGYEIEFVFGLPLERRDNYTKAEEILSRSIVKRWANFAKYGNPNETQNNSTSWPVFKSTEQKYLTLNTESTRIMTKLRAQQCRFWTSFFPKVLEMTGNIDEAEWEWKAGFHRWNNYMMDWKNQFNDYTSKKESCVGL
property.name: IC50 (µM)

chem.smiles | property.name | experimental.value
Cc1ccc2c(N)c3c(nc2c1)CCC3 | IC50 | 8.44
Cc1ccc2c(N)c3c(nc2c1)CCCCC3 | IC50 | 1
Nc1c2c(nc3ccc(Cl)cc13)CCCCC2 | IC50 | 10.3

###

List of IC50 tested on Cholinesterase (Homo sapiens, UniProt P06276).
property.name: IC50 (µM)

chem.smiles | property.name | experimental.value
Cc1ccc2nc3c(c(N)c2c1)CCCC3 | IC50 | 13.7
Cc1ccc2nc3c(c(N)c2c1)CCCCC3 | IC50 | 10.6
COc1ccc2nc3c(c(N)c2c1)CCC3 | IC50 | 10.6

###

- target.under.test: Glutamate NMDA receptor; GRIN1/GRIN2B (Homo sapiens, UniProt Q05586+Q13224)
- Sequence (Q13224 whole entry, looked up, other chains not shown): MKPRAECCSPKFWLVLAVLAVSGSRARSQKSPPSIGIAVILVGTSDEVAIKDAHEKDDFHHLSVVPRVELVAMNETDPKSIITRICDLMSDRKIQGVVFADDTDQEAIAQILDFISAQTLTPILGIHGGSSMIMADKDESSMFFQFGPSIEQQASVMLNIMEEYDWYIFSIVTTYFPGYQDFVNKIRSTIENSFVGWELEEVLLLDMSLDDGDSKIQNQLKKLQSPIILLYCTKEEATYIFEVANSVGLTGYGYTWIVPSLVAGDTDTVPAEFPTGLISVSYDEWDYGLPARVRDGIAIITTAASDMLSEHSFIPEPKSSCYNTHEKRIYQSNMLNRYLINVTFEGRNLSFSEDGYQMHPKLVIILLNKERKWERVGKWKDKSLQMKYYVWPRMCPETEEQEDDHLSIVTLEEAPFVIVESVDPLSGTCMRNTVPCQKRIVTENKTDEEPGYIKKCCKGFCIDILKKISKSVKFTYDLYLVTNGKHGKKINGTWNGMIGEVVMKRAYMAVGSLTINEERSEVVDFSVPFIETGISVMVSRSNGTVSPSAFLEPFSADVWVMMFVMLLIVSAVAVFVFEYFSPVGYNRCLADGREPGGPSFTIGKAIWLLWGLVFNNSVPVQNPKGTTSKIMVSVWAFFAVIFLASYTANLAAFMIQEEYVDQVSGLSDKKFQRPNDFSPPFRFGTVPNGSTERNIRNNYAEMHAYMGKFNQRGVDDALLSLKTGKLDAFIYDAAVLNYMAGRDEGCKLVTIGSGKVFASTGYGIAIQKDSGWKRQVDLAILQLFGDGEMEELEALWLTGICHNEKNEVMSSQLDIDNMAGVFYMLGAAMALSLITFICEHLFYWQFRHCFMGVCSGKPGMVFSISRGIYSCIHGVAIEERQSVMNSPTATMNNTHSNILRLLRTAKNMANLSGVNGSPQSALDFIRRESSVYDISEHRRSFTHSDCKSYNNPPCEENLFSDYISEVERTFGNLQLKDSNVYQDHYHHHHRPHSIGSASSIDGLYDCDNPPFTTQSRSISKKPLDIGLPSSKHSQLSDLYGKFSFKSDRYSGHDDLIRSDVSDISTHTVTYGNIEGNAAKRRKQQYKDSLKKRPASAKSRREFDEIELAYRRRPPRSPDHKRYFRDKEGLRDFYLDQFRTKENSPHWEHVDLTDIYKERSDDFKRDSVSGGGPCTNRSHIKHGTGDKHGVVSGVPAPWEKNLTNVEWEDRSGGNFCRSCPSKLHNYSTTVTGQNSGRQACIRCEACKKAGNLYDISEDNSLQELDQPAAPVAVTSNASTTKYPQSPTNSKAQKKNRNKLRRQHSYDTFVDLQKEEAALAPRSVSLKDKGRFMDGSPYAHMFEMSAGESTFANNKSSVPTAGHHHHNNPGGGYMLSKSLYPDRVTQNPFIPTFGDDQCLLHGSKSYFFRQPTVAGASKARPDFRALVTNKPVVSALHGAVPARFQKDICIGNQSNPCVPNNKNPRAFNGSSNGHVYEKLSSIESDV
pIC50: −log10 of the molar value.
# reported pIC50; entries follow
property.name: pIC50

chem.smiles | target.under.test | property.name | experimental.value
Nc1c2c(nc3cccc(Cl)c13)CCC2 | Glutamate NMDA receptor; GRIN1/GRIN2B (Homo sapiens, UniProt Q05586+Q13224) | pIC50 | 4.35
COc1ccc2nc3c(c(N)c2c1)CCCCC3 | Glutamate NMDA receptor; GRIN1/GRIN2B (Homo sapiens, UniProt Q05586+Q13224) | pIC50 | 5.12
Cl.Nc1c2c(nc3ccc(Br)cc13)CCC2 | Glutamate NMDA receptor; GRIN1/GRIN2B (Homo sapiens, UniProt Q05586+Q13224) | pIC50 | 5.16
